test-system: Glucagon Receptor (Homo sapiens)
Sequence (P47871 26-477): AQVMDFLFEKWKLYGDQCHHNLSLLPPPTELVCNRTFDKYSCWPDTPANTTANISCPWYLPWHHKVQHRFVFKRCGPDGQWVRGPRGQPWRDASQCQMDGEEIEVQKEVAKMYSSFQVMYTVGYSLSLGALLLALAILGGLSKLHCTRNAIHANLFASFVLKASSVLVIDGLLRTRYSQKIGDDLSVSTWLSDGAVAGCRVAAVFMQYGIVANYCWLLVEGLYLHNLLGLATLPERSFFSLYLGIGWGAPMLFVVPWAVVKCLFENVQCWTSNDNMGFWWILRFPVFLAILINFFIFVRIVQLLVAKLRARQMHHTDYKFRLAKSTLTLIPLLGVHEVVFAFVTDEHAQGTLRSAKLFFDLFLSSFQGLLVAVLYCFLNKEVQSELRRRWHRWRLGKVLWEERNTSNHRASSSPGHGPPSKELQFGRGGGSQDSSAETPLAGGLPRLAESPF
procedure-details: Glucagon receptor binding assay (scintillation proximity competition binding)
condition-parameters: read-out: Receptor Binding IC50; Table 4
Ends that are not written are not given here.
assay-readout: IC50 (nM)
Respond numerically; units are nM and should not be typed.

Per the record, GTFTSEYSKYLDSRRAQDFVQWLMNT-NH2 [[Glu^9]Glucagon(aa4-29)-NH2] has IC50 of 136

src = patent US8980830B2
